test system: CP260; assay: qHTS profiling for inhibitors of Plasmodium falciparum proliferation (AID 504749); note: nearly all actives have a fitted effect of over 60% in size; conditions: P. falciparum in erythrocytes, SYBR Green DNA, 72 h; series mostly up to 28.7 µM
Results filed as inconclusive are left out. Active and inactive are the calls of the source. Calls come from the whole dose curve; as a rule, active = well fitted inhibition curve with a large enough effect; inconclusive = small, poorly fitted or top-dose-only effect; inactive = flat fitted curve, though single readings scatter.
Just give me one of these, please: yes (1) for active, no (0) for inactive

Called result for CSc1ccc2c(c1)C(N1CCN(C)CC1)Cc1ccccc1S2 (configuration not stated)
yes (1)

Then what about the molecule CC(C)(C)NCC(O)COc1ccc(NC(=O)NC2CCCCC2)cc1 (configuration not stated) ?
no (0)

Then what about the molecule "CC(=O)Oc1ccc(C2(c3ccc(OC(C)=O)cc3)C(=O)Nc3ccccc32)cc1" ?
no (0)

Where these numbers come from: PubChem BioAssay (NCATS)
